These entries and their values trace back to ChEMBL document CHEMBL4513216.

# Lookup of reported cytotoxicity at 10 µM keyed by entry
Experiment: Toxicity liver stage against HepG2, at 10uM
Type: cell-based
Set-up: test concentration 10 uM, cell line HepG2-A16-CD81EGFP
Details: human, HepG2-A16-CD81EGFP cells; read-out: INHIBITION
# unit: % | format: bare number

[[record]]
molecule = "CN1CCN(C(=O)CCn2ncc3ccccc32)CC(C(N)=O)C1 (configuration not stated)"
measurement_units = "%"
measured_value = 4.33


Query: State, in one line, measured cytotoxicity at 10 µM of CC(Cn1cccn1)NC(=O)Nc1ccccn1 (configuration not stated)
Reply: 1.32

Query: State, in one line, measured cytotoxicity at 10 µM of "COc1ncccc1CNC(=O)c1cc(C)on1"
Reply: -20.2

Query: State, in one line, measured cytotoxicity at 10 µM of "NS(=O)(=O)CCNC(=O)c1cc2cccc(F)c2o1"
Reply: 2.46

Query: State, in one line, measured cytotoxicity at 10 µM of CN(Cc1cnn(C)c1)C(=O)NC1CCC(O)CC1 (configuration not stated)
Reply: -14.7

###

Assay: Toxicity liver stage against HepG2, at 10uM
Format: cell-based
Parameters: test concentration 10 uM, cell line HepG2-A16-CD81EGFP
Conditions: human, HepG2-A16-CD81EGFP cells; read-out: INHIBITION
# Lookup of reported cytotoxicity at 10 µM keyed by entry
# unit: % | format: bare number

Worked cases, cytotoxicity at 10 µM given:
[[record]]
compound = "CNc1ncc(C(=O)N2CCCC(CO)(CCCOC)C2)cn1 (stereo unspecified)"
measurement_units = "%"
measured_value = -44.4

[[record]]
compound = "Cc1nc(CN2CCO[C@H]3[C@@H](OCc4ccccn4)CC[C@@H]32)cs1"
measurement_units = "%"
measured_value = 0.179

[[record]]
compound = "O=C([C@@H]1Cc2[nH]cnc2CN1C(=O)NC1CCCCC1)N1CCCC1"
measurement_units = "%"
measured_value = 6.06

[[record]]
compound = "O=C(c1cccnc1SC/C=C/c1ccccc1)N1CC[C@H](O)C1"
measurement_units = "%"
measured_value = -9.66


Query: State, in one line, measured cytotoxicity at 10 µM of Cc1nc(C)n(CC2CCCN(CC(=O)Nc3c(C)n[nH]c3C)C2)n1 (stereo unspecified)
Reply: 0.813

Query: State, in one line, measured cytotoxicity at 10 µM of CN1CCCC(Cc2cncc(C(=O)NC3CC3)c2)C1 (stereo unspecified)
Reply: -25.6

Query: State, in one line, measured cytotoxicity at 10 µM of "CN(C)c1ccc(CN2CCN(c3ccc(C#N)cc3)C(=O)C2)cn1"
Reply: -28.2

###

Test: Toxicity liver stage against HepG2, at 10uM
Type: cell-based
Set-up: test concentration 10 uM, cell line HepG2-A16-CD81EGFP
Conditions: human, HepG2-A16-CD81EGFP cells; read-out: INHIBITION
# Lookup of reported cytotoxicity at 10 µM keyed by entry
Please answer using the number first and the unit second.

[[record]]
molecule = "O=C(O)CN1CCOCC(Cc2ccc(Cl)cc2)C1 (configuration not stated)"
measured_value = "-25.7%"


Below: the item to evaluate.
Query: State, in one line, measured cytotoxicity at 10 µM of "Cn1cnnc1C1CCN(C(=O)c2cc3c(s2)CCCC3)CC1"
Reply: -19%

###

Assay: Toxicity liver stage against HepG2, at 10uM
Assay type: cell-based
Set-up: test concentration 10 uM, cell line HepG2-A16-CD81EGFP
Settings: human, HepG2-A16-CD81EGFP cells; read-out: INHIBITION
# Lookup of reported cytotoxicity at 10 µM keyed by entry
# unit: % | format: bare number

Worked cases, cytotoxicity at 10 µM given:
[[record]]
compound = "Cc1cc(C)n(CC(=O)N2CCC(c3nc(C(C)C)no3)CC2)n1"
measured_metric = "cytotoxicity at 10 µM"
measured_value = 9.1

[[record]]
compound = "COc1cc(C2SCC(=O)Nc3[nH]ncc32)cc(OC)c1OC (stereo unspecified)"
measured_metric = "cytotoxicity at 10 µM"
measured_value = 8.49

[[record]]
compound = "CNC(=O)c1cc(C)n(-c2ccccc2)n1"
measured_metric = "cytotoxicity at 10 µM"
measured_value = -0.142

[[record]]
compound = "COc1cccc(CNC(=O)CCOc2ccccc2C)c1"
measured_metric = "cytotoxicity at 10 µM"
measured_value = -1.2


Below: the item to evaluate.
Query: State, in one line, measured cytotoxicity at 10 µM of Cc1nn(C)c(Cl)c1C1CCCN1C(=O)c1cnn(C)c1C1CC1 (stereo unspecified)
Reply: 1.99

###

# Lookup of reported cytotoxicity at 10 µM keyed by entry
Assay: Toxicity liver stage against HepG2, at 10uM
Format: cell-based
Set-up: test concentration 10 uM, cell line HepG2-A16-CD81EGFP
Conditions: human, HepG2-A16-CD81EGFP cells; read-out: INHIBITION
# unit: % | format: bare number

[[record]]
compound = "CC(Nc1ccc(CC(=O)N(C)C)cc1)C(=O)N(C)CCC#N (configuration not stated)"
measured_metric = "cytotoxicity at 10 µM"
measured_value = 1.42

[[record]]
compound = "Cn1nc2c(cc1=O)CN(CCN1CCCC1=O)CC2"
measured_metric = "cytotoxicity at 10 µM"
measured_value = -31.1

[[record]]
compound = "COCCN(CCOC)C(=O)c1cccc(Cn2nc(C)cc2C)c1"
measured_metric = "cytotoxicity at 10 µM"
measured_value = -8.22

[[record]]
compound = "O=C(Cn1cc(I)cn1)N1CCCCCC1"
measured_metric = "cytotoxicity at 10 µM"
measured_value = 8.9

[[record]]
compound = "Cc1cc(CN2CCC(CNS(=O)(=O)c3ccc(C)s3)CC2)c(C)o1"
measured_metric = "cytotoxicity at 10 µM"
measured_value = 3.39

[[record]]
compound = "CC(C)NCc1cccnc1N1CCN(c2ccccn2)CC1"
measured_metric = "cytotoxicity at 10 µM"
measured_value = -3.85


Query: State, in one line, measured cytotoxicity at 10 µM of "CCCc1nnc(N2CCC3(CC2)CC(=O)NC(=O)C3)o1"
Reply: 3.06

Query: State, in one line, measured cytotoxicity at 10 µM of "COc1ccc(CN(C)Cc2cccc(C#N)c2)c(OC)c1"
Reply: -4.48

Query: State, in one line, measured cytotoxicity at 10 µM of "O=C(C1CCC1)N1CCC2(CC1)OCCO2"
Reply: 4.93

Query: State, in one line, measured cytotoxicity at 10 µM of "CSCc1noc(Cn2ccc3ccccc3c2=O)n1"
Reply: 3.63

Query: State, in one line, measured cytotoxicity at 10 µM of COCCN1CCCC1c1nccnc1Nc1nccs1 (configuration not stated)
Reply: -7.55

Query: State, in one line, measured cytotoxicity at 10 µM of Cc1nc(CN2CCC3(CC2)CC(c2cccnc2)C(=O)N3C)cs1 (configuration not stated)
Reply: 9.95

###

Test: Toxicity liver stage against HepG2, at 10uM
Format: cell-based
Parameters: test concentration 10 uM, cell line HepG2-A16-CD81EGFP
Details: human, HepG2-A16-CD81EGFP cells; read-out: INHIBITION
Measured Metric: cytotoxicity at 10 µM (%)
# unit: % | format: bare number

Worked cases, cytotoxicity at 10 µM given:
[[record]]
molecule = "O=C(Nc1ccccc1OC1CCOC1)c1cc[nH]n1 (stereo not drawn)"
measured_metric = "cytotoxicity at 10 µM"
measured_value = -1.57

[[record]]
molecule = "O=C(NC1(c2nc(C3CC3)no2)CCCCC1)c1ccncc1"
measured_metric = "cytotoxicity at 10 µM"
measured_value = -7.12

[[record]]
molecule = "CCN1CCN(C2CCN(Cc3nc(C4CC4)no3)CC2)C1=O"
measured_metric = "cytotoxicity at 10 µM"
measured_value = -2.69

[[record]]
molecule = "CCC1(O)CCCN(c2nc(-c3ccccn3)nc3c2c(C)nn3C)C1 (stereo not drawn)"
measured_metric = "cytotoxicity at 10 µM"
measured_value = 3.11

[[record]]
molecule = "CNc1ncc(CN2CCC(CCc3ccccc3)CC2)cn1"
measured_metric = "cytotoxicity at 10 µM"
measured_value = 5.19


Query: State, in one line, measured cytotoxicity at 10 µM of "Cc1nc(C2CCN(C(=O)c3cnc(N(C)C)nc3)CC2)c2sccn12"
Reply: -4.5

Query: State, in one line, measured cytotoxicity at 10 µM of COCCC(=O)N1CCCC1c1nccc(C)n1 (stereo not drawn)
Reply: -19.2

###

Test: Toxicity liver stage against HepG2, at 10uM
Format: cell-based
Set-up: test concentration 10 uM, cell line HepG2-A16-CD81EGFP
Details: human, HepG2-A16-CD81EGFP cells; read-out: INHIBITION
# Lookup of reported cytotoxicity at 10 µM keyed by entry
# unit: % | format: bare number

[[record]]
molecule = "CN(Cc1ccc(N2CCCCC2)cc1)Cc1noc(C(C)(C)C)n1"
measured_metric = "cytotoxicity at 10 µM"
measurement_units = "%"
measured_value = 12.5

[[record]]
molecule = "Cc1cnn(CC2CCCCN2C(=O)c2ccc3[nH]c(=O)[nH]c3c2)c1 (stereo not drawn)"
measured_metric = "cytotoxicity at 10 µM"
measurement_units = "%"
measured_value = 5.8

[[record]]
molecule = "Cc1ncnc2c1CCN(CC(=O)N(C)C)CC2"
measured_metric = "cytotoxicity at 10 µM"
measurement_units = "%"
measured_value = -101


Query: State, in one line, measured cytotoxicity at 10 µM of "Cc1ccc(S(=O)(=O)NC(=O)CCC(F)(F)F)cc1N(C)C"
Reply: -3.79

Query: State, in one line, measured cytotoxicity at 10 µM of NCC1CCC(C(NC(=O)c2ccccn2)c2ccccn2)CC1 (stereo not drawn)
Reply: 2

Query: State, in one line, measured cytotoxicity at 10 µM of "Cc1ccc(CN2C[C@@H](OCc3csc(C)n3)[C@H]3COC[C@H]32)s1"
Reply: -5.21

Query: State, in one line, measured cytotoxicity at 10 µM of "c1cnc(N2CC3(CCN(Cc4ccncc4)C3)C2)nc1"
Reply: -82.8
